- assay.overview: in vitro
- applied.conditions: human, CAR-T cells
Entries and their measured viability at 8 day, 100 nM follow.
Report field: quantity (unit follows the number).

Entry under test: CC[C@@H]1CN(C(=O)NCC(F)(F)F)C[C@@H]1c1cnc2cnc3[nH]ccc3n12 . Its viability at 8 day, 100 nM was 62%

Attention now turns to another entry.
Entry under test: C[C@@H]1C[C@H]2[C@@H]3CCC4=CC(=O)C=C[C@]4(C)[C@@]3(F)[C@@H](O)C[C@]2(C)[C@@]1(O)C(=O)CO . Its viability at 8 day, 100 nM was 56.6%

---

- assay.overview: in vitro
- applied.conditions: human
quantity: viability at 12 day, 50 nM
Report field: quantity (unit follows the number).

Entry under test: C[C@@H]1CCN(C(=O)CC#N)C[C@@H]1N(C)c1ncnc2[nH]ccc12 . Its viability at 12 day, 50 nM was 80.1%

---

- Test system: phospho-STAT panel (pSTAT3/4/5), CD3+ T cells
- assay.overview: phospho-STAT induction by IL-6, MesoScale Discovery phospho-STAT panel
- Format: cell-based, human
- applied.conditions: CD3+ T cells, 100 ng/ml IL-6 + drug 10 uM, 20 min; MSD signal (No stim. 1964, IL-6 alone 15405)
quantity: pSTAT4
Lab note: jot down the number only; don't add units.

See these solved cases before continuing.
Entry under test: O=C(Nc1nc2cccc(-c3ccc(CN4CCS(=O)(=O)CC4)cc3)n2n1)C1CC1 . Its pSTAT4 was 2121

Entry under test: CC[C@@H]1CN(C(=O)NCC(F)(F)F)C[C@@H]1c1cnc2cnc3[nH]ccc3n12 . Its pSTAT4 was 2322

Entry under test: C[C@@H]1CCN(C(=O)CC#N)C[C@@H]1N(C)c1ncnc2[nH]ccc12 . Its pSTAT4 was 2159

Entry under test: C[C@H]1C[C@@H]2[C@H]([C@@H](O)C[C@@]3(C)[C@H]2CC[C@]3(O)C(=O)CO)[C@@]2(C)C=CC(=O)C=C12 . Its pSTAT4 was 11225

Attention now turns to another entry.
Entry under test: C[C@@H]1C[C@H]2[C@@H]3CCC4=CC(=O)C=C[C@]4(C)[C@@]3(F)[C@@H](O)C[C@]2(C)[C@@]1(O)C(=O)CO . Its pSTAT4 was 11588

---

- Test system: CD19 CAR T cells
- assay.overview: CAR T cell cytokine production (Luminex) under CD19 K562, KIP-1 or CD2/3/28 stimulation
- applied.conditions: Homo sapiens, T-cell, 72 h, read-out: Suppression of cytokine production, IL-8 (IC50), CD3/CD28 stimulation, 72 h
quantity: IC50

See these solved cases before continuing.
Observed IC50, CD19 CAR T cells, N#CCC1(n2cc(-c3ncnc4[nH]ccc34)cn2)CN(C2CCN(C(=O)c3ccnc(C(F)(F)F)c3F)CC2)C1 : < 0.1 µM

Observed IC50, CD19 CAR T cells, C[C@@H]1C[C@H]2[C@@H]3CCC4=CC(=O)C=C[C@]4(C)[C@@]3(F)[C@@H](O)C[C@]2(C)[C@@]1(O)C(=O)CO : > 10 µM

Observed IC50, CD19 CAR T cells, CC[C@@H]1CN(C(=O)NCC(F)(F)F)C[C@@H]1c1cnc2cnc3[nH]ccc3n12 : < 0.1 µM

Further cases:
Observed IC50, CD19 CAR T cells, O=C(Nc1nc2cccc(-c3ccc(CN4CCS(=O)(=O)CC4)cc3)n2n1)C1CC1 : > 10 µM
